// reported log10(IC50) for each item listed
- experimental.system: Integrin alpha-IIb/beta-3 (Homo sapiens, UniProt P05106+P08514)
- Sequence (P05106 27-788 limits assumed): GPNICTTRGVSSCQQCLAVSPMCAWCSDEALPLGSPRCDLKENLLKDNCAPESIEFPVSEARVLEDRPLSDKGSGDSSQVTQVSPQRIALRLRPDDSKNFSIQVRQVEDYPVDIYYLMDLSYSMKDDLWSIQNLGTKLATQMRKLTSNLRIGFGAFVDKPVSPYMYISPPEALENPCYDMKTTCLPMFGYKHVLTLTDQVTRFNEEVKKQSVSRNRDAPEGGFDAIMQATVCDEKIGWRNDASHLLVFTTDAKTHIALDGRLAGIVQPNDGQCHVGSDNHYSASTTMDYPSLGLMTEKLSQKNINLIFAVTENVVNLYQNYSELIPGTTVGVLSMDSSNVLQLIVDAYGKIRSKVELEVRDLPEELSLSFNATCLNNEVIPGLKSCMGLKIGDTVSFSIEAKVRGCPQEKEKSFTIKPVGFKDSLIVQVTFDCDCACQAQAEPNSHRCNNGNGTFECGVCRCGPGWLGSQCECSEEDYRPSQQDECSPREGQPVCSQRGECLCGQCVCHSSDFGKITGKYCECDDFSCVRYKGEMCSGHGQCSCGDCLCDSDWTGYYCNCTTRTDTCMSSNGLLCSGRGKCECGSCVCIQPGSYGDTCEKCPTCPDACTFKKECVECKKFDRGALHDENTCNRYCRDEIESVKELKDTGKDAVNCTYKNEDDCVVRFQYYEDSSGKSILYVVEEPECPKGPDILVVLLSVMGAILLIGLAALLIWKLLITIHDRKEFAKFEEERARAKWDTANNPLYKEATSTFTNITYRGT
- Sequence (P08514 32-887 limits assumed): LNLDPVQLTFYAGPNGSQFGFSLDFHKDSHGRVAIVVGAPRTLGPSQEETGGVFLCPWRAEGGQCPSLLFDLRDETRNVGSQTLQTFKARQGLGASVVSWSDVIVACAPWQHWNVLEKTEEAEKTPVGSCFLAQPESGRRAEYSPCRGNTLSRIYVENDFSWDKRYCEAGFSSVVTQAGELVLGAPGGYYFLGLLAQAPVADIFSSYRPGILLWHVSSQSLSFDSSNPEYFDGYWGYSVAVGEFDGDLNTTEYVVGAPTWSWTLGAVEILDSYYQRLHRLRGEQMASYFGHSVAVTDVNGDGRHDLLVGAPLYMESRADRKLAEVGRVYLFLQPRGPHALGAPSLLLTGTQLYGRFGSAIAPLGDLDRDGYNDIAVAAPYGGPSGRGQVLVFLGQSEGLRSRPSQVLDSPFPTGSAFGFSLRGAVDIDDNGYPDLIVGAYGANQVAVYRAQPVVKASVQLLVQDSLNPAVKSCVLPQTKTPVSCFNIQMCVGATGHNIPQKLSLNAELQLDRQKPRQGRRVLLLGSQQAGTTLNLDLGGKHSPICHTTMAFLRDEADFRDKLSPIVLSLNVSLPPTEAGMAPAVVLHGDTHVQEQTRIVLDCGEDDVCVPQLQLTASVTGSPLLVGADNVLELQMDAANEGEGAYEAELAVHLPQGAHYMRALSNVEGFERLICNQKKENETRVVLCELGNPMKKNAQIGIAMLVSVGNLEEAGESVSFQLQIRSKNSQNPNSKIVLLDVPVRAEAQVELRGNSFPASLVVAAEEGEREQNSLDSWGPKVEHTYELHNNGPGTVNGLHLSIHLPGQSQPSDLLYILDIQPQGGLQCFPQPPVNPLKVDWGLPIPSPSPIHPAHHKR
- Sequence (P08514 891-1039 limits assumed): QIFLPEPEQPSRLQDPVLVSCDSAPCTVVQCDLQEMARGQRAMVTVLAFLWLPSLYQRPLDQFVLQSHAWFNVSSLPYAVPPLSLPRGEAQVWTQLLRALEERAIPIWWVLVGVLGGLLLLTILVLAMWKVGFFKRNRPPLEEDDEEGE
- procedure.summary: Affinity for purified activated GPIIb/IIIa fibrinogen receptor in ELISA
- Assay type: protein-complex assay
Scale: log10; quantity: IC50; unit before log: nM

Recorded log10(IC50), per entry:
// assay Integrin alpha-IIb/beta-3 (Homo sapiens, UniProt P05106+P08514), entry N=C(N)c1ccc(C(=O)Nc2cccc(CCC(=O)O)c2)cc1 , log10(IC50) value = -0.26

Let me check: Cc1c(C(=O)N(C)CCC(=O)O)s/c(=N\C(=O)c2ccc(C(=N)N)cc2)n1C , system Integrin alpha-IIb/beta-3 (Homo sapiens, UniProt P05106+P08514), measured log10(IC50) is -0.05

The reported Integrin alpha-IIb/beta-3 (Homo sapiens, UniProt P05106+P08514) log10(IC50) of CCn1c(C)c(C(=O)NCCC(=O)O)s/c1=N\C(=O)c1ccc(C(=N)N)cc1 is -0.92

Item Cc1c(C(=O)NCCC(=O)O)s/c(=N\C(=O)c2ccc(C(=N)N)cc2)n1Cc1ccccc1 ; assay system Integrin alpha-IIb/beta-3 (Homo sapiens, UniProt P05106+P08514); log10(IC50) reported as -1.05

Given the compound CCCCn1c(C)c(C(=O)NCCC(=O)O)s/c1=N\C(=O)c1ccc(C(=N)N)cc1 and test system Integrin alpha-IIb/beta-3 (Homo sapiens, UniProt P05106+P08514), the measured log10(IC50) is -0.89

Further cases:
Simply: Cc1nc(N(C)C(=O)c2ccc(C(=N)N)cc2)sc1CCC(=O)O , Integrin alpha-IIb/beta-3 (Homo sapiens, UniProt P05106+P08514), log10(IC50) = 0.00

Cn1c2c(s/c1=N\C(=O)c1ccc(C(=N)N)cc1)C(=O)N(CCC(=O)O)C2 tested on Integrin alpha-IIb/beta-3 (Homo sapiens, UniProt P05106+P08514) gave log10(IC50): 0.68

Form field, log10(IC50) with Integrin alpha-IIb/beta-3 (Homo sapiens, UniProt P05106+P08514), item Cc1nc(NC(=O)c2ccc(C(=N)N)cc2)sc1CCC(=O)O : -0.24

---

- experimental.system: Integrin alpha-IIb/beta-3 (Homo sapiens, UniProt P05106+P08514)
- procedure.summary: Binding to [125I]- fibrinogen by washed platelet fibrinogen receptor
reported.property: pIC50
Give only the number. pIC50 is defined as minus log10 of concentration in molar units.

Some solved entries appear below for comparison.
Documented pIC50 of Cc1c(C(=O)N(C)CCC(=O)O)s/c(=N\C(=O)c2ccc(C(=N)N)cc2)n1C : 7.29

Notebook: CCCCn1c(C)c(C(=O)NCCC(=O)O)s/c1=N\C(=O)c1ccc(C(=N)N)cc1 , pIC50 read as 8.20

pIC50 for N=C(N)c1ccc(C(=O)Nc2cccc(CCC(=O)O)c2)cc1 is 6.98

Continuing:
Lookup result for Cn1c2c(s/c1=N\C(=O)c1ccc(C(=N)N)cc1)C(=O)N(CCC(=O)O)C2 ; measured pIC50: 7.17

GET /value?item= Cc1nc(NC(=O)c2ccc(C(=N)N)cc2)sc1CCC(=O)O &field=pIC50 returns 7.22
